Entries annotated with measured EC50
# System: Sphingosine 1-phosphate receptor 3 (Homo sapiens, UniProt Q99500)
# Sequence (Q99500 whole entry): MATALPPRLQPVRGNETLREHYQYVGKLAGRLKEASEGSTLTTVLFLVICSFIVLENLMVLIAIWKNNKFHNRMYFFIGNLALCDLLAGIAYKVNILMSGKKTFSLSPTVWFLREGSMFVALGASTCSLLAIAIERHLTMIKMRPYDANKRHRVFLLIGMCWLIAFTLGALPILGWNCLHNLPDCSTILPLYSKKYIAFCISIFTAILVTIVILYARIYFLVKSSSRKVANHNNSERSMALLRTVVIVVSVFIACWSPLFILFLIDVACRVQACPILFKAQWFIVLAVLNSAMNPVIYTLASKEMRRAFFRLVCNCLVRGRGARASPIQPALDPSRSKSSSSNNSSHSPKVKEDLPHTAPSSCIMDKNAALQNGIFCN
# Procedure Summary: Effective concentration against sphingosine 1-phosphate receptor 3 determined by a [c-35S]-GTP binding assay
Write the number in nM without appending the unit.

Illustrative cases are given below, each with its answer.
CCCCCCCCc1ccc(-c2c[nH]c([C@@H](N)COP(=O)(O)O)n2)cc1 :: 330
CCCCCCCCc1ccc(-c2c[nH]c([C@H](N)CO)n2)cc1 :: 2700
CCCCCCCCc1ccc(-c2c[nH]c(C(C)(N)COP(O)(O)=S)n2)cc1 (stereo not drawn) :: 1600

// fetch Sphingosine 1-phosphate receptor 3 (Homo sapiens, UniProt Q99500) EC50 for CCCCCCCCc1ccc(-c2c[nH]c([C@H](N)COP(=O)(O)O)n2)cc1
1700

// fetch Sphingosine 1-phosphate receptor 3 (Homo sapiens, UniProt Q99500) EC50 for CCCCCCCCc1ccc(-c2c[nH]c([C@@H](N)COP(O)(O)=S)n2)cc1
690

// fetch Sphingosine 1-phosphate receptor 3 (Homo sapiens, UniProt Q99500) EC50 for CCCCCCCCc1ccc(-c2c[nH]c(C(N)(CO)COP(O)(O)=S)n2)cc1 (stereo not drawn)
790

// fetch Sphingosine 1-phosphate receptor 3 (Homo sapiens, UniProt Q99500) EC50 for CCCCCCCCc1ccc(-c2c[nH]c(C(C)(N)COP(=O)(O)O)n2)cc1 (stereo not drawn)
780

// fetch Sphingosine 1-phosphate receptor 3 (Homo sapiens, UniProt Q99500) EC50 for CCCCCCCCc1ccc(-c2c[nH]c(C(N)(CO)COP(=O)(O)O)n2)cc1 (stereo not drawn)
630

Numbers sourced from ChEMBL document CHEMBL1140276.
